# Measured Target: UniProtKB O76083
# Sequence (O76083 whole entry): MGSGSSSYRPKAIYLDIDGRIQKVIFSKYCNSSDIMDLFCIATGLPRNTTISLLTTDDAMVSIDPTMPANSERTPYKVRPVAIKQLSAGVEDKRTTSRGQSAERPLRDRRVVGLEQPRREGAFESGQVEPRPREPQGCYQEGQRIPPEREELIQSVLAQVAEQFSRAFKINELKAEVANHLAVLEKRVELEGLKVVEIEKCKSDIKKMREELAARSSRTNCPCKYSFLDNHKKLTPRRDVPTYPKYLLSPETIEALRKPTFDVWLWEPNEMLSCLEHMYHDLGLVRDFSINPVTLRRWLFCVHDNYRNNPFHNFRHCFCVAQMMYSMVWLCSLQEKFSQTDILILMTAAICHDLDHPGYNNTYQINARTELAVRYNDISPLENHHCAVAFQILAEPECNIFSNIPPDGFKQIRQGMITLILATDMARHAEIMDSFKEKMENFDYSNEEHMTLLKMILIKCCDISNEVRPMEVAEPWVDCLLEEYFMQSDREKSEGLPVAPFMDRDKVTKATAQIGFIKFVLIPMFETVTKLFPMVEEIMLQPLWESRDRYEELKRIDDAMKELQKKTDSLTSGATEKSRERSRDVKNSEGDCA
# Test Description: PDE9-inhibiting activity (SPA, 3H-cGMP degradation)
// assign True if IC50 falls strictly below 10 nM, else False (ties count as False)

### Prompt Consider the molecule Cc1cc2c(cc1C(=O)N1CCc3cc(F)ccc31)[nH]c(=O)c1nnc(C3CCC(F)(F)CC3)n12.Cl [Example 13, hydrochloride] . Is its IC50 strictly less than 10 nM?
### Response False

### Prompt Consider the molecule COCc1cc2c(cc1C(=O)N1CCc3cc(OC)ncc31)[nH]c(=O)c1cnc(C3CCOCC3)n12 [Example 333] . Is its IC50 strictly less than 10 nM?
### Response True

### Prompt Consider the molecule Cc1cc2c(cc1C(=O)N1CCc3c(Cl)cccc3C1)[nH]c(=O)c1nnc(C3CCCC3)n12 [Example 91] . Is its IC50 strictly less than 10 nM?
### Response False

### Prompt Consider the molecule Cl.O=C(c1cc2[nH]c(=O)c3cnc(C4CCOCC4)n3c2cc1C1CC1)N1CCc2cc(Cl)ccc21 [Example 263] . Is its IC50 strictly less than 10 nM?
### Response True

### Prompt Consider the molecule Cc1cc2c(cc1C(=O)N1CCc3cc(Cl)c(F)cc31)[nH]c(=O)c1nnc(C3CCOCC3)n12 [Example 291] . Is its IC50 strictly less than 10 nM?
### Response True

### Prompt Consider the molecule Cc1cc2c(cc1C(=O)N1CCc3cc(F)ccc31)[nH]c(=O)c1cnc(C3CCCOC3)n12 (stereo not drawn) [Example 318] . Is its IC50 strictly less than 10 nM?
### Response True

### Prompt Consider the molecule Cc1cc2c(cc1C(=O)N1CCc3cc(Cl)ccc31)[nH]c(=O)c1nnc(C3CCCOC3)n12.Cl (stereo not drawn) [Example 281] . Is its IC50 strictly less than 10 nM?
### Response True

### Prompt Consider the molecule Cc1cc2c(cc1C(=O)N1CCc3cc(Br)cnc31)[nH]c(=O)c1nnc(C3CCOC3)n12.Cl (stereo not drawn) [Example 312] . Is its IC50 strictly less than 10 nM?
### Response False

### Prompt Consider the molecule Cc1cc2c(cc1C(=O)N1CCc3cc(F)c(F)cc31)[nH]c(=O)c1nnc(C3CCCC3)n12.Cl [Example 289] . Is its IC50 strictly less than 10 nM?
### Response True

### Prompt Consider the molecule CCCc1nnc2c(=O)[nH]c3cc(C(=O)N(C)Cc4cccc(Cl)c4)ccc3n12 [Example 134] . Is its IC50 strictly less than 10 nM?
### Response False

### Prompt Consider the molecule Cc1cc2c(cc1C(=O)N1CCc3cc(F)cnc31)[nH]c(=O)c1nnc(C3CCOCC3)n12 [Example 352] . Is its IC50 strictly less than 10 nM?
### Response False

### Prompt Consider the molecule Cc1cc2c(cc1C(=O)N1CCc3sccc3C1)[nH]c(=O)c1cnc(C3CCOCC3)n12.Cl [Example 35] . Is its IC50 strictly less than 10 nM?
### Response False

###

Exercise: for every item that follows, state its recorded melting point.

### Prompt Can you look up the measured melting point of Cc1cc2c(cc1C(=O)N1Cc3ccccc3C1)[nH]c(=O)c1nnc([C@H]3CC[C@H](C)CC3)n12 for me?
### Response 318 to 321 °C

### Prompt Can you look up the measured melting point of Cc1cc2c(cc1C(=O)N1CCc3cc(Br)cnc31)[nH]c(=O)c1nnc(C3CCCOC3)n12 (centres unmarked) for me?
### Response 218 to 220 °C (dec.)

### Prompt Can you look up the measured melting point of Cc1cc2c(cc1C(=O)N1Cc3ccc(F)cc3C1)[nH]c(=O)c1cnc(C3CCOCC3)n12.Cl for me?
### Response 200 to 203 °C

### Prompt Can you look up the measured melting point of Cc1cc2c(cc1C(=O)N1CCc3cc(Cl)cnc31)[nH]c(=O)c1cnc(C3CCOCC3)n12.Cl for me?
### Response 297 °C (dec.)

### Prompt Can you look up the measured melting point of COCc1cc2c(cc1C(=O)N1CCc3cc(Br)cnc31)[nH]c(=O)c1cnc(C3CCOCC3)n12.Cl for me?
### Response 310 °C (dec.)

### Prompt Can you look up the measured melting point of Cc1cc2c(cc1C(=O)N1CCc3cc(Cl)ccc31)[nH]c(=O)c1nnc(C3CCC(F)(F)CC3)n12 for me?
### Response 230 to 233 °C

### Prompt Can you look up the measured melting point of Cc1cc2c(cc1C(=O)N1CCc3cc(Br)cnc31)[nH]c(=O)c1nnc(C3CCOC3)n12.Cl (centres unmarked) for me?
### Response 242 to 243 °C

### Prompt Can you look up the measured melting point of Cc1cc2c(cc1C(=O)N1CCc3c(Cl)cccc31)[nH]c(=O)c1cnc(C3CCOCC3)n12.Cl for me?
### Response 272 to 273 °C
